Data provenance is ChEMBL document CHEMBL4118102.

system.name: Neuraminidase (Influenza A virus (A/Memphis/1/1971(H3N2)), UniProt P03471)
Sequence (P03471 whole entry): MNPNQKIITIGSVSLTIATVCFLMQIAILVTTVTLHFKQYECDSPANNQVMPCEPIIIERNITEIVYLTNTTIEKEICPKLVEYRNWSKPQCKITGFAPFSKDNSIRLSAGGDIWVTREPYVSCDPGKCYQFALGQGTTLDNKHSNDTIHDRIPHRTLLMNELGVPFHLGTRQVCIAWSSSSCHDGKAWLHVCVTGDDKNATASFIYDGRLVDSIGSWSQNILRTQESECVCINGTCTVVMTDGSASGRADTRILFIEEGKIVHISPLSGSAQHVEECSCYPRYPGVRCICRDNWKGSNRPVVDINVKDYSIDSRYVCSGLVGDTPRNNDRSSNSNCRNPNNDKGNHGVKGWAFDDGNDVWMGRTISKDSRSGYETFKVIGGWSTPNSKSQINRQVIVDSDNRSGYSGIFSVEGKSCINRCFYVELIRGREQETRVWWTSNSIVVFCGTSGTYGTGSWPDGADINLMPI
Set-up: species or system Influenza A virus (A/Fukui/45/2004(H3N2))
Items are presented alongside their recorded IC50.

                            molecule_smiles                               system_name  measure_name  experimental_result
0  CC(=O)N[C@@H]1[C@@H](O)[C@@H](F)[C@](F)(C(=O)O)O[C@H]1[C@H](O)CCO  Neuraminidase (Influenza A virus (A/Memphis/1/1971(H3N2)), UniProt P03471)          IC50              5.01 µM

Exercise: What value of measured IC50 is listed for CC(=O)N[C@@H]1C[C@@H](F)[C@](F)(C(=O)O)O[C@H]1[C@H](O)[C@H](O)CO ?
Solution: 0.318 µM
